- SUBJECT OF TEST: human Cot catalytic domain (30-397 amino acids) (Homo sapiens)
- Construct: Purified recombinant human Cot catalytic domain (30-397 amino acids) was purchased from Cama Biosciences; purchased Cama Biosciences (so in the source)
- ASSAY NOTES: High Throughput Cot Biochemical Assay (KinEASE TR-FRET)
- CONDITIONS USED: Cot KinEASE TR-FRET, 400 μM ATP; read-out: IC50 HTRF
RESULT TYPE: IC50 (nM)

[2H][C@](Nc1cc(Cl)c2ncc(C#N)c(N[C@H](CCC#N)c3ccccc3)c2c1)(c1ccc(F)cc1)c1cn(C2(C(F)(F)F)CC2)nn1    6
CC(C)(C)CNc1c(C#N)cnc2c(C#N)cc(N[C@@H](c3ccc(F)cc3)c3cn(C4(C#N)CC4)nn3)cc12    6

(I) Cc1c([C@H](Nc2cc(Cl)c3ncc(C#N)c(NCC(C)(C)C)c3c2)c2cn(C3(C(F)F)CC3)nn2)cccc1-n1cnnn1
(II) CCN1CCC(n2cc([C@@H](Nc3cc(Cl)c4ncc(C#N)c(N[C@H](CCC#N)c5ccccc5)c4c3)c3ccc(Cl)cc3)nn2)CC1
Prompt: Which has the smaller recorded IC50, I or II ? Reply with the label of the item you choose.
Response: II
(II: 2 nM, I: 3 nM)

====

- SUBJECT OF TEST: human Cot catalytic domain (30-397 amino acids) (Homo sapiens, UniProt P41279)
- Construct: Purified recombinant human Cot catalytic domain (30-397 amino acids) was purchased from Cama Biosciences; purchased Cama Biosciences (so in the source)
- Sequence (P41279 30-397): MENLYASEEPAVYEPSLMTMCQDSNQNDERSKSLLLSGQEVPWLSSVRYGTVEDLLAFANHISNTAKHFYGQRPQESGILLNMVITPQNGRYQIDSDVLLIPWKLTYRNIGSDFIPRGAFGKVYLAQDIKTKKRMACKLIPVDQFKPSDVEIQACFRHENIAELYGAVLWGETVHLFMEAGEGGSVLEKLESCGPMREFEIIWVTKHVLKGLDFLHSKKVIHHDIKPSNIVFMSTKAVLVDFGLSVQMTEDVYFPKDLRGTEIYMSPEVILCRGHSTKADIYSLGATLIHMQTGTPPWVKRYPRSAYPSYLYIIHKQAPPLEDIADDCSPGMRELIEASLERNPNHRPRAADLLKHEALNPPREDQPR
- ASSAY NOTES: High Throughput Cot Biochemical Assay (KinEASE TR-FRET)
- CONDITIONS USED: Cot KinEASE TR-FRET, 400 μM ATP; read-out: IC50 HTRF
pIC50: −log10 of the molar value.
RESULT TYPE: pIC50

(1) N#Cc1cnc2c(Cl)cc(NC(c3ccc(F)cc3)c3cn(C[C@H]4CCCN4)nn3)cc2c1Nc1ccc(F)c(Cl)c1 (stereo partly drawn)
(2) CC[C@@H](Nc1c(C#N)cnc2c(Cl)cc(N[C@H](c3cn(C(F)(F)C(N)=O)nn3)c3ccccc3Cl)cc12)c1ccccc1
Prompt: Which has the smaller recorded pIC50, 1 or 2 ? Reply with the label of the item you choose.
Response: 2

====

- SUBJECT OF TEST: human Cot catalytic domain (30-397 amino acids) (Homo sapiens)
- Construct: Purified recombinant human Cot catalytic domain (30-397 amino acids) was purchased from Cama Biosciences; purchased Cama Biosciences (so in the source)
- ASSAY NOTES: High Throughput Cot Biochemical Assay (KinEASE TR-FRET)
- CONDITIONS USED: Cot KinEASE TR-FRET (HTRF) biochemical assay, 400 μM ATP; read-out: IC50 HTRF
pIC50: −log10 of the molar value.
RESULT TYPE: pIC50

// worked examples, pIC50 included
CC(C)n1cc([C@@H](Nc2cc(Cl)c3ncc(C#N)c(NC(CC#N)c4ccccc4)c3c2)c2ccc(F)cc2)nn1 (some centres unmarked) [Example 362]    8.30
N#Cc1cnc2c(Cl)cc(N[C@@H](c3ccc(F)cc3)c3cn(C4CC4)nn3)cc2c1NCc1cncs1 [Example 346]    6.47
N#Cc1cnc2c(Cl)cc(N[C@@H](c3cccc(F)c3)c3cn(C4CC4)nn3)cc2c1Nc1cnc(F)c(F)c1 [Example 265]    7.92
[2H][C@](Nc1cc(Cl)c2ncc(C#N)c(NCC(C)(C)CC)c2c1)(c1ccc(F)cc1)c1cn(C2CC2)nn1 [Example 223]    8.30

(1) [2H][C@](Nc1cc(C#C)c2ncc(C#N)c(N[C@H](CC)c3ccccc3)c2c1)(c1ccc(F)cc1)c1cn(C2CC2)nn1 [Compound 30]
(2) CC(F)(F)CNc1c(C#N)cnc2c(Cl)cc(N[C@@H](c3ccc(F)cc3)c3cn(C4CC4)nn3)cc12 [Example 349]
Prompt: Which has the smaller recorded pIC50, 1 or 2 ? Reply with the label of the item you choose.
Response: 1

(P) N#Cc1cnc2c(Cl)cc(N[C@@H](c3cccc(C(F)(F)F)c3)c3cn(C4CC4)nn3)cc2c1Nc1cnc(F)c(F)c1 [Example 264]
(Q) CC[C@@H](Nc1c(C#N)cnc2c(C#N)cc(N[C@H](c3cn(C4CC4)nn3)c3ccccc3Cl)cc12)c1ccccc1 [Example 210]
(R) [2H][C@](Nc1cc(Cl)c2ncc(C#N)c(NCC(C)(C)CO)c2c1)(c1ccc(F)cc1)c1cn(C2CC2)nn1 [Example 308]
(S) [2H][C@](Nc1cc(Cl)c2ncc(C#N)c(NC(C)(C)C)c2c1)(c1ccc(F)cc1)c1cn(C2CC2)nn1 [Example 283]
Prompt: In this exercise, place the 4 molecules in ascending sequence of their recorded pIC50. Provide the ranking by listing each label in its place in the requested order.
Response: S, P, R, Q
(S: 7.05, P: 7.35, R: 7.59, Q: 8.22)

(A) [2H][C@](Nc1cc(Cl)c2ncc(C#N)c(Nc3cnc(F)c(F)c3)c2c1)(c1ccc(F)cc1)c1cn(C(C)(C)C)nn1 [Example 381]
(B) [2H][C@](Nc1cc(-c2ccccc2)c2ncc(C#N)c(NCC(C)(C)C)c2c1)(c1ccc(F)cc1)c1cn(C2CC2)nn1 [Example 171]
Prompt: Which has the smaller recorded pIC50, A or B ? Reply with the label of the item you choose.
Response: B
(B: 5.02, A: 7.36)
